- system.tested: KCNQ 2/3 channels (Homo sapiens, UniProt O43525+O43526)
- Construct: expressed in transfected cells; host or cells: HEK293
- method.description: KCNQ 2/3 channel activation, thallium flux FLIPR assay (BTC-AM dye)
- Type: cell-based
- run.parameters: HEK293, maximum response relative to the response of 10 μM retigabine (set at 100%); HEK293 KCNQ2/KCNQ3 cells; read-out: % MAX
- Method: The following example describes the assay that can be used to identify compounds that activate KCNQ 2/3 channels. HEK293 cells stably expressing human KCNQ2 and KCNQ3 subunits were seeded in 96-well, black-walled, clear-bottomed, poly-D-lysine coated plates (BD Biosciences, Bedford, Mass.) at a density of 1×10^5 cells per well 24 hours before the assay. […] The fluorescence signal was initiated by adding 100 μL of assay buffer containing 6 mM TlNO3 and 10 mM K2SO4. […]
Listed next: entries and their corresponding Emax.
Kindly provide the numeric value in % only, without the unit symbol.

compound: CCOC(=O)C(C)c1nn(NC(=O)Cc2ccc(Cl)cc2)c(=O)c2ccccc12 (stereo not drawn)
system.tested: KCNQ 2/3 channels (Homo sapiens, UniProt O43525+O43526)
experimental.result: 53.2
--
compound: CC(C)(C)OC(=O)Nc1ccc(S(=O)(=O)c2nn(NC(=O)Cc3ccc(Cl)cc3)c(=O)c3ccccc23)cc1
system.tested: KCNQ 2/3 channels (Homo sapiens, UniProt O43525+O43526)
experimental.result: 46.2
--
compound: O=C(CC12CC3CC(CC1C3)C2)Nn1nc(-c2ccc(C(F)(F)F)nc2)c2ccccc2c1=O
system.tested: KCNQ 2/3 channels (Homo sapiens, UniProt O43525+O43526)
experimental.result: 137
--
compound: CC(C)(CC(=O)Nn1nc(-c2ccc(Cl)nc2)c2ccccc2c1=O)c1ccccc1
system.tested: KCNQ 2/3 channels (Homo sapiens, UniProt O43525+O43526)
experimental.result: 134
--
compound: Cc1ccsc1-c1nn(NC(=O)Cc2ccc(Cl)cc2)c(=O)c2ccccc12
system.tested: KCNQ 2/3 channels (Homo sapiens, UniProt O43525+O43526)
experimental.result: 124

Alright, here's another compound for you.
KCNQ 2/3 channels (Homo sapiens, UniProt O43525+O43526) / Emax / O=C(Cc1ccccc1Br)Nn1nc(N2CCOCC2)c2ccccc2c1=O : value? 1.17

---

- system.tested: KCNQ 2/3 channels (Homo sapiens, UniProt O43525+O43526)
- method.description: KCNQ 2/3 channel activation, thallium flux FLIPR assay (BTC-AM dye)
- run.parameters: HEK293 cells stably expressing human KCNQ2 and KCNQ3 subunits; thallium-induced fluorescence, 4 min compound incubation
pEC50: −log10 of the molar value.
Class assignment keyed on pEC50, ranges low class = under 6, middle class = from 6 up to 7, high class = 7 and over

Known results for compounds:
compound: O=C(Cc1cc(F)cc(F)c1)Nn1nc(C2=CCOCC2)c2ccccc2c1=O
system.tested: KCNQ 2/3 channels (Homo sapiens, UniProt O43525+O43526)
label.class: low class

compound: O=C(Cc1cc(F)cc(F)c1)Nn1nc(Sc2ccc(Br)cc2)c2ccccc2c1=O
system.tested: KCNQ 2/3 channels (Homo sapiens, UniProt O43525+O43526)
label.class: high class

compound: CC(C)(CC(=O)Nn1nc(N2CCOCC2)c2ccccc2c1=O)c1ccccc1
system.tested: KCNQ 2/3 channels (Homo sapiens, UniProt O43525+O43526)
label.class: low class

compound: N#Cc1cc(-c2nn(NC(=O)CC3CC4CCC3C4)c(=O)c3ccccc23)ccn1 (racemic)
system.tested: KCNQ 2/3 channels (Homo sapiens, UniProt O43525+O43526)
label.class: middle class

Which class does CCOC(=O)c1nn(NC(=O)CC2CC3CCC2C3)c(=O)c2ccccc12 (racemic) fall in? middle class

Which class does O=C(Cc1ccc(Cl)cc1)Nn1nc(N2CCN(Cc3ccccc3)CC2)c2ccccc2c1=O fall in? low class

Which class does O=C(Cc1ccc(O)cc1)Nn1nc(N2CCOCC2)c2ccccc2c1=O fall in? low class

Which class does O=C(CC1CC2CCC1C2)Nn1nc(CNC(=O)OCc2ccccc2)c2ccccc2c1=O (racemic) fall in? middle class

Which class does CC1CN(c2nn(NC(=O)CC(C)(C)c3ccccc3)c(=O)c3ccccc23)CC(C)O1 (stereo not drawn) fall in? middle class

Each recorded value in this set is attributed to patent US8859549B2.
